Data credit: paper PMC8784640

- system-name: GAC (K320A and Y466W) (Mus musculus, UniProt D3Z7P3, K325A/Y471W)
- Construct: made in house
- Sequence (D3Z7P3 72-603 isoform D3Z7P3-2 K325A/Y471W): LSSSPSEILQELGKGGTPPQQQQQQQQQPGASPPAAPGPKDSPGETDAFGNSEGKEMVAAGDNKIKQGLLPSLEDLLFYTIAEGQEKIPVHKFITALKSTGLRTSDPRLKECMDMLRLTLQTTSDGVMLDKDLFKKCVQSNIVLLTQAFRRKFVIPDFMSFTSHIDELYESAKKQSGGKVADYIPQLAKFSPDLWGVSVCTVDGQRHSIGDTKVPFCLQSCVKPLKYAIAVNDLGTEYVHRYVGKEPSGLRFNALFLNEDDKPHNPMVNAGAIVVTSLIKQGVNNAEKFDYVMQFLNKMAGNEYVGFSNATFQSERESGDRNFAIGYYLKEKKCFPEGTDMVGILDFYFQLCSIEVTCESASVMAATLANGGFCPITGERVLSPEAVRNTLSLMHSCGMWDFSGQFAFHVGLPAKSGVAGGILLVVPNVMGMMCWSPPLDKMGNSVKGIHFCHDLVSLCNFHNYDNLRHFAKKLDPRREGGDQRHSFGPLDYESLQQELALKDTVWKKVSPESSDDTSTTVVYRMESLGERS
- test-summary: Tryptophan fluorescence quenching binding assay, GAC (K320A and Y466W)
- applied-conditions: GAC mutant K320A, Trp 466 fluorescence, read-out: Kd (apparent)
pKd: −log10 of the molar value.
// reported pKd for each item listed

smiles-entry | system-name | pKd
O=C(Cc1ccccc1)Nc1nnc(OC2CCN(c3nnc(NC(=O)Cc4ccccc4)s3)CC2)s1 | GAC (K320A and Y466W) (Mus musculus, UniProt D3Z7P3, K325A/Y471W) | < 6.00

--- query ---
May I ask what pKd has been recorded for "O=C(Cc1ccccc1)Nc1nnc(NC2CCN(c3nnc(NC(=O)Cc4ccccc4)s3)CC2)s1" ?
< 6.00

====

- system-name: GAC (F318A and Y466W) (Mus musculus, UniProt D3Z7P3, F323A/Y471W)
- Sequence (D3Z7P3 128-555 F323A/Y471W): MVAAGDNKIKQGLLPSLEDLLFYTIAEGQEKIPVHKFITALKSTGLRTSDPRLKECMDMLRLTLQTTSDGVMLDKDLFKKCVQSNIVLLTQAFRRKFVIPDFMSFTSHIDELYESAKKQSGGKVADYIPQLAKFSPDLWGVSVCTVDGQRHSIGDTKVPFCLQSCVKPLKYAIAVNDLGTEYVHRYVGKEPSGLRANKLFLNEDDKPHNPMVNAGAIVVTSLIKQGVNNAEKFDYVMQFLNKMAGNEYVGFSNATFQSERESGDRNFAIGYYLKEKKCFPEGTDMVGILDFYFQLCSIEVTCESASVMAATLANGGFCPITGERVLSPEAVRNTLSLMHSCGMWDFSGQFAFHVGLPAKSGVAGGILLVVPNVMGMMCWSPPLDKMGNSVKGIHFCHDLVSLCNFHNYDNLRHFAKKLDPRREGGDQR
- test-summary: Tryptophan fluorescence quenching binding assay, GAC (F318A and Y466W)
- applied-conditions: GAC mutant F318A, Trp 466 fluorescence, read-out: Kd (apparent)
property: Kd (nM)

P = O=C(Cc1ccccc1)Nc1nnc(NC2CCN(c3nnc(NC(=O)Cc4ccccc4)s3)CC2)s1 [UPGL00004]
Q = O=C(Cc1ccccc1)Nc1nnc(OC2CCN(c3nnc(NC(=O)Cc4ccccc4)s3)CC2)s1 [UPGL00019]
Compare P and Q by numeric Kd and name the larger one. Provide the label of your selected option as the answer.
Q
(Q: 54 nM, P: 24 nM)

====

- system-name: GAC (F322W) (Mus musculus, UniProt D3Z7P3, F327W)
- Sequence (D3Z7P3 72-603 isoform D3Z7P3-2 F327W limits assumed): as the sequence (D3Z7P3 72-603 isoform D3Z7P3-2 K325A/Y471W) above, with A254K, F256W, W400Y counted along it
- test-summary: Tryptophan fluorescence quenching binding assay, GAC (F322W)
pKd: −log10 of the molar value.
property: pKd

a = O=C(Cc1ccccc1)Nc1nnc(OC2CCN(c3nnc(NC(=O)Cc4ccccc4)s3)CC2)s1 [UPGL00019]
b = Nc1nnc(N2CCC(Oc3nnc(NC(=O)Cc4ccccc4)s3)CC2)s1 [UPGL00031]
Lab note: check whether a or b has the lower measured pKd. Provide the label of your selected option as the answer.
a
(a: 7.26, b: 7.46)

====

- system-name: GAC (R317A and Y466W) (Mus musculus, UniProt D3Z7P3, R322A/Y471W)
- Sequence (D3Z7P3 128-555 R322A/Y471W): as the sequence (D3Z7P3 128-555 F323A/Y471W) above, with R195A, A196F counted along it
- test-summary: Tryptophan fluorescence quenching binding assay, GAC (R317A and Y466W)
- applied-conditions: GAC mutant R317A, Trp 466 fluorescence, read-out: Kd (apparent)
pKd: −log10 of the molar value.
property: pKd

molecule | pKd
O=C(Cc1ccccc1)Nc1nnc(OC2CCN(c3nnc(NC(=O)Cc4ccccc4)s3)CC2)s1 [UPGL00019] | 7.51
O=C(Cc1ccccc1)Nc1nnc(NC2CCN(c3nnc(NC(=O)Cc4ccccc4)s3)CC2)s1 [UPGL00004] | 7.42
